B1: tRNA (parent)
chain: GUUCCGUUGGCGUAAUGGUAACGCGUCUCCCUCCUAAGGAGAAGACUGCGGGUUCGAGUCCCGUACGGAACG

- Variants of: B1
- measurementDescription: yeast fitness relative to wild type (ratio to wild type); higher = fitter; tRNA-Arg(CCU), competitive growth, 37 C, YPD
Fewer inactive variants are shown than the library holds.
reportedMetric: yeast fitness

G50A U53A C61U :: 0.532
C5A A65C G68A :: 0.628
U32C G48C C49U :: 0.635
U7G G48A C62U :: 0.628
G10A U13G C27U C46G A69C :: 0.506
U2G C66U :: 0.858
C5G C55G A65C :: 0.531
U19A A43U :: 1
A36U G38A :: 0.617
U16A G44A :: 0.999
A42C A45U C46U :: 0.861
C5G C30U C31G :: 0.79
